target: P2X purinoceptor 3 (Homo sapiens); test: Antagonist activity at human recombinant P2X3 receptor expressed in Xenopus oocytes assessed as inhibition of ATP-induced ion current at 100 nM incubated for 20 mins prior to ATP-induction by two-electrode voltage clamp assay; assay type: cell-based; settings: Oocyte
QUANTITY_KIND: inhibition (%)

Consider the following illustrative entries.
- MOL: "Cc1nc(/N=N/c2cc(S(=O)(=O)O)ccc2S(=O)(=O)O)c(CCC(=O)O)c(C(=O)O)c1O"
  SUBJECT_OF_TEST: "P2X purinoceptor 3 (Homo sapiens)"
  QUANTITY_KIND: "inhibition"
  RESULT_VALUE: 45.7
- MOL: "Cc1nc(/N=N/c2ccc(C(=O)O)cc2)c(CCC(=O)O)c(C(=O)O)c1O"
  SUBJECT_OF_TEST: "P2X purinoceptor 3 (Homo sapiens)"
  QUANTITY_KIND: "inhibition"
  RESULT_VALUE: 25.7
- MOL: "Cc1nc(/N=N/c2ccc(S(=O)(=O)O)cc2)c(CCC(=O)O)c(C=O)c1O"
  SUBJECT_OF_TEST: "P2X purinoceptor 3 (Homo sapiens)"
  QUANTITY_KIND: "inhibition"
  RESULT_VALUE: 46.5
- MOL: "Cc1nc(/N=N/c2cc(S(=O)(=O)O)ccc2S(=O)(=O)O)c(CCC(=O)O)c(C=O)c1O"
  SUBJECT_OF_TEST: "P2X purinoceptor 3 (Homo sapiens)"
  QUANTITY_KIND: "inhibition"
  RESULT_VALUE: 40.1

[I] Cc1nc(/N=N/c2ccc(S(=O)(=O)O)cc2)c(CCC(=O)O)c(C(=O)O)c1O
[II] Cc1nc(/N=N/c2ccc(C(=O)O)cc2)c(CCC(=O)O)c(C=O)c1O
Challenge: Return label of the item with the larger inhibition. Candidates: I , II . Let me know the label of the one you choose.
Response given: II
